Cited source: PubChem BioAssay (NCI)

system: PC-3 prostate; experiment: NCI tumour cell line growth inhibition, 48 h
Measure Name: GI50

What value of GI50 has been reported for the following compound? C[C@]12CC[C@H]3[C@@H](CC=C4C[C@@H](O)CC[C@@]43C)[C@@H]1C/C(=C\c1cccc(OCCCn3ccnc3)c1)[C@@H]2O
9.48 µM

What value of GI50 has been reported for the following compound? CN(C)c1ccc2[nH]c(O)c(C=Nc3ccc(S(N)(=O)=O)cc3)c2c1
> 25 µM

What value of GI50 has been reported for the following compound? O=C(Nc1cccc(-c2nc3ccccc3[nH]2)c1)c1cccc(NC(=O)c2ccco2)c1
2.25 µM

What value of GI50 has been reported for the following compound? CN1CCN(Cc2ccc(NC(=O)c3[nH]ncc3Nc3ccnc4ccsc34)cc2)CC1
3.25 µM

====

tested on: HS 578T breast; assay: NCI tumour cell line growth inhibition, 48 h
*1 amine or outer side, *2 acyl side, *3 side chain or, on linkers, in order; H or OH if unused. Where a SMILES comes first, the peptide text is derived from it. CO = O=C([*:1])[*:2]
Measure Name: TGI

For orientation, consider the following solved cases.
{"columns": ["Compound", "TGI"],
 "data": [
  ["C#CCOC(=O)C(N)CS (stereo not drawn)", "> 100 µM"],
  ["CC(C)C(NC(=O)C(CCCN=C(N)N)NC(=O)NC(Cc1ccccc1)C(=O)O)C(=O)NC(C=O)CCCN=C(N)N (stereo not drawn) ({Phe-CO}-Arg-Val-Arg-aldehyde; configuration not given here)", "> 5 µM"]
]}

Let us examine a further case.
What value of TGI has been reported for the following compound? Cc1nc(Cl)c(C)c(Cl)n1
> 100 µM

====

test system: NCI-H23 lung; assay: NCI tumour cell line growth inhibition, 48 h
Measure Name: TGI

For orientation, consider the following solved cases.
{"columns": ["Molecule", "Measure Name", "Result Value"],
 "data": [
  ["Nc1ccccc1C(=O)NNC(=O)c1ccccc1N", "TGI", "> 100 µM"],
  ["O=[N+]([O-])c1ccccc1/C=C/C=C1c2ccccc2-c2ccccc21", "TGI", "> 100 µM"],
  ["CC(=O)C1(c2ccccc2)CCCN(C)CC1 (stereo not given)", "TGI", "> 100 µM"],
  ["CCOC(=O)C1C(C(C)C)C2(C#N)C(=N)OC1(C)C2(C#N)C#N (stereo not given)", "TGI", "> 100 µM"]
]}

Let us examine a further case.
What value of TGI has been reported for the following molecule? COC(=O)C1=C(C(=O)OC)C(C(=O)c2ccccc2)N2N=C(c3ccc(Cl)cc3)C=CC12 (stereo not given)
> 100 µM

====

system: A549 NSCLC; experiment: NCI tumour cell line growth inhibition, 48 h
Measure Name: TGI

{"columns": ["Line Notation", "Result Value"],
 "data": [
  ["COc1ccc(/C=c2/[nH]c(=O)/c(=C\\c3ccc(OCc4ccccc4)cn3)[nH]c2=O)cc1", "> 100 µM"]
]}

What value of TGI has been reported for the following molecule? O=C(/C=C(\O)C(=O)O)/C=C(\O)c1ccccc1Cl
> 100 µM

What value of TGI has been reported for the following molecule? C/C=C/CP(=O)(c1ccccc1)c1ccccc1
> 100 µM

====

tested on: SNB-19 CNS; assay: NCI tumour cell line growth inhibition, 48 h
TGI values, listed per item

{"columns": ["Compound", "TGI"],
 "data": [
  ["OC(c1ccc(-c2ccccc2)cc1)(c1ccc(-c2ccccc2)cc1)c1ccc(-c2ccccc2)cc1", "> 100 µM"],
  ["O=C1CC(c2ccccc2)NCN1 (centres undefined)", "> 100 µM"],
  ["O=c1oc2ccccc2c(O)c1C(c1ccc2ccccc2c1)c1c(O)c2ccccc2oc1=O", "> 100 µM"]
]}

Let us examine a further case.
What value of TGI has been reported for the following compound? COc1cc(N)ccc1Nc1c2ccccc2nc2ccccc12
38.1 µM
